- MEASUREMENT_DESCRIPTION: clinical
- DETAILS: human, plasma, oral, 160 mg, T1/2, 160 mg t.i.w., cycle 1 Day 1, mean
MEASURED_QUANTITY: half-life (h)
Answers are plain numbers, in h.

INPUT: Name the recorded half-life for C=CC(=O)N1CC[C@H](n2nc(C#Cc3cc(OC)cc(OC)c3)c3c(N)ncnc32)C1 [futibatinib] .
OUTPUT: 8.75

* * *

- MEASUREMENT_DESCRIPTION: clinical
- DETAILS: human, plasma, oral, 24 mg, AUC0–inf, 24 mg q.d., cycle 1 Day 1, mean
MEASURED_QUANTITY: AUC(0-inf) (ng·h/mL)
Answers are plain numbers, in ng·h/mL.

INPUT: Name the recorded AUC(0-inf) for C=CC(=O)N1CC[C@H](n2nc(C#Cc3cc(OC)cc(OC)c3)c3c(N)ncnc32)C1 .
OUTPUT: 1270

* * *

- MEASUREMENT_DESCRIPTION: clinical
- DETAILS: human, plasma, oral, 20 mg, T1/2, 20 mg q.d., cycle 1 Day 21, mean
MEASURED_QUANTITY: half-life

INPUT: Name the recorded half-life for C=CC(=O)N1CC[C@H](n2nc(C#Cc3cc(OC)cc(OC)c3)c3c(N)ncnc32)C1 .
OUTPUT: ~3 h

* * *

- MEASUREMENT_DESCRIPTION: clinical
- DETAILS: human, plasma, oral, 8 mg, T1/2, 8 mg q.d., cycle 1 Day 1, mean
MEASURED_QUANTITY: half-life (h)
One number for each entry, in h.

INPUT: Name the recorded half-life for C=CC(=O)N1CC[C@H](n2nc(C#Cc3cc(OC)cc(OC)c3)c3c(N)ncnc32)C1 .
OUTPUT: 2.26

* * *

- MEASUREMENT_DESCRIPTION: clinical
- DETAILS: human, plasma, oral, 24 mg, T1/2, 24 mg q.d., cycle 1 Day 21, mean
MEASURED_QUANTITY: half-life
Answer with the number, then the unit.

INPUT: Name the recorded half-life for C=CC(=O)N1CC[C@H](n2nc(C#Cc3cc(OC)cc(OC)c3)c3c(N)ncnc32)C1 .
OUTPUT: 3.12 h

* * *

- MEASUREMENT_DESCRIPTION: clinical
- DETAILS: human, plasma, oral, 4 mg, AUC0–last, 4 mg q.d., cycle 1 Day 21, mean
MEASURED_QUANTITY: AUC(0-t) (ng·h/mL)
One number for each entry, in ng·h/mL.

INPUT: Name the recorded AUC(0-t) for C=CC(=O)N1CC[C@H](n2nc(C#Cc3cc(OC)cc(OC)c3)c3c(N)ncnc32)C1 [futibatinib] .
OUTPUT: 134

* * *

- MEASUREMENT_DESCRIPTION: clinical
- DETAILS: human, plasma, oral, 160 mg, Tmax, 160 mg t.i.w., cycle 1 Day 1, median
MEASURED_QUANTITY: Tmax
Answer with the number, then the unit.

INPUT: Name the recorded Tmax for C=CC(=O)N1CC[C@H](n2nc(C#Cc3cc(OC)cc(OC)c3)c3c(N)ncnc32)C1 .
OUTPUT: 2.52 h

* * *

- MEASUREMENT_DESCRIPTION: clinical
- DETAILS: human, plasma, oral, 120 mg, AUC0–inf, 120 mg t.i.w., cycle 1 Day 1, mean
MEASURED_QUANTITY: AUC(0-inf) (ng·h/mL)
Numbers only, in ng·h/mL.

INPUT: Name the recorded AUC(0-inf) for C=CC(=O)N1CC[C@H](n2nc(C#Cc3cc(OC)cc(OC)c3)c3c(N)ncnc32)C1 [futibatinib] .
OUTPUT: 5310
